# WC ELISA (fold over background) listing for each entry below
- Target System: T1, human cMet expressed on 3T3 cells (human, UniProt P08581 25-1390)
- T1 construct: whole, on cells; cells fixed with glutaraldehyde; also called cell surface-expressed human cMet; 3T3 cells that over-express human cMet
- T1 sequence (P08581 25-1390): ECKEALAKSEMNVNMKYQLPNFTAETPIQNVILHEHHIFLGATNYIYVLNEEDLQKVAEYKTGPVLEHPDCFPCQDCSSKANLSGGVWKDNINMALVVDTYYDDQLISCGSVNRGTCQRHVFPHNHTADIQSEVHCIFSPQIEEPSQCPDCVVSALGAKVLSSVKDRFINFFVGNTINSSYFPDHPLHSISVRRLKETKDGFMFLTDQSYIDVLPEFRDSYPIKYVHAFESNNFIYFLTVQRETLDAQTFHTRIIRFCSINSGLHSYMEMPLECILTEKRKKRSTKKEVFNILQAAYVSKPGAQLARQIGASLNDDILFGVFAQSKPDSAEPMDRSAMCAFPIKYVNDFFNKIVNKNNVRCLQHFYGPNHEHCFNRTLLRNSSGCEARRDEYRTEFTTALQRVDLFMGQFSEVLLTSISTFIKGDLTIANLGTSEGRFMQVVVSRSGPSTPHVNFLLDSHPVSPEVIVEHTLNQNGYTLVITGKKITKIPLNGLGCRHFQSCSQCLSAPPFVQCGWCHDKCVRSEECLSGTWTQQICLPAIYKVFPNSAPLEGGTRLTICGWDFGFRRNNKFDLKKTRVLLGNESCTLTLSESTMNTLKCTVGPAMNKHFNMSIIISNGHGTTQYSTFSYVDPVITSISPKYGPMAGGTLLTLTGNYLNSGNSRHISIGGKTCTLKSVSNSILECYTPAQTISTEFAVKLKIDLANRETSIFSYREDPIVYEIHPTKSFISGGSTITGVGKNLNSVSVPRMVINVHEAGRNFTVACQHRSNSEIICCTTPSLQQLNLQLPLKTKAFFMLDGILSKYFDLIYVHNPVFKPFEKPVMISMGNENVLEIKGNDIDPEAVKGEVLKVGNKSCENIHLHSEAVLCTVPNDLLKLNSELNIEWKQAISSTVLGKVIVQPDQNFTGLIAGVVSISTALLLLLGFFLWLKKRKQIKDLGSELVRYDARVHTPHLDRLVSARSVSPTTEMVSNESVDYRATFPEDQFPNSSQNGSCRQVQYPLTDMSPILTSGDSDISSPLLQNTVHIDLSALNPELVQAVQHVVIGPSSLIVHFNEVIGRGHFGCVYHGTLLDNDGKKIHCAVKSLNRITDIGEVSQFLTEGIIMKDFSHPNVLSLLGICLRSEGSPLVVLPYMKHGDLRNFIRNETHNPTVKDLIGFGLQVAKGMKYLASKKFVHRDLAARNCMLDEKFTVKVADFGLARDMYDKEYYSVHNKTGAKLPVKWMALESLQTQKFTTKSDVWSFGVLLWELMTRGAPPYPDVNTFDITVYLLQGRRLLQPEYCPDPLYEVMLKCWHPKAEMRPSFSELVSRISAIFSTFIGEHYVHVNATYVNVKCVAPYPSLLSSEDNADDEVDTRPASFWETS
- Test Summary: whole cell phage ELISA, 3T3 human cMet vs 3T3
Reply with the number and its unit after it.

Some binders with recorded WC ELISA (fold over background):
Input: Item AQFSGLVMYGRTHEVQWTFGSM [94-G02 peptide-displaying phage (SEQ ID NO: 477)] : provide WC ELISA (fold over background)
Output: 1.3 fold

Input: Give the value of WC ELISA (fold over background) reported for the following: GSMLMCELWWCRFLAP [569-H10 peptide-displaying phage (SEQ ID NO: 004)]
Output: 1.27 fold

Input: Quick one: give measured WC ELISA (fold over background) for AGYYGCKGPPTFECQWMGT [330-F05 peptide-displaying phage (SEQ ID NO: 049)]
Output: 1.33 fold

Input: Tell me measured WC ELISA (fold over background) for AQEWEREYFVDGFWGSWFGIPH [130-E10 peptide-displaying phage (SEQ ID NO: 472)] please.
Output: 1.8 fold

Input: Give a short answer stating reported WC ELISA (fold over background) for AGAFFCSGPPTFMCSLYGT [550-G07 peptide-displaying phage (SEQ ID NO: 098)] .
Output: 1.27 fold

Input: Supply reported WC ELISA (fold over background) belonging to this binder: AGGNWCSFYEELCEWLGT [445-E04 peptide-displaying phage (SEQ ID NO: 043)]
Output: 1.37 fold

Input: For the binder AGYYHCIDDFPQCKWMGT [482-D02 peptide-displaying phage (SEQ ID NO: 017)] , give its measured WC ELISA (fold over background) value.
Output: 1.37 fold

Input: Output WC ELISA (fold over background) of AQYDTWVFQFIHEVPGELVAMQ (also called linear isolate 94-E08) [94-E08 peptide-displaying phage (SEQ ID NO: 454)]
Output: 1.23 fold

Input: Report WC ELISA (fold over background) for AGWWSCQWELNVCIWQGT [484-D08 peptide-displaying phage (SEQ ID NO: 016)]
Output: 1.33 fold

Input: Given the binder AGEWWCHGPPEFLCYWTGT [331-F01 peptide-displaying phage (SEQ ID NO: 072)] , write its reported WC ELISA (fold over background).
Output: 1.47 fold

More entries:
Input: Assign WC ELISA (fold over background) to the following record: GDPDECQLNRETFEVWCPWHDP [547-C09 peptide-displaying phage (SEQ ID NO: 401)]
Output: 1.23 fold
